system: HIV-1 (JRCSF); assay: Anti-HIV activity in MaRBLE cells infected with HIV-1 (JRCSF), luciferase readout; format: cell-based; conditions: Human immunodeficiency virus 1, 168 h; MaRBLE cells (human T lymphocyte-derived HPB-M(a)) infected with HIV-1 (JRCSF); 7 days culture; rate of viral proliferation by luciferase activity; read-out: Anti-HIV activity IC50
pIC50: −log10 of the molar value.
Cut-off 7 on pIC50, inclusive. At or above means Met; below means Not met.

COc1cccc(CNc2cc(=O)n(O)c3ncnc(C)c23)c1 [Example 31] :: Not met
O=C(NCc1ccccc1)c1c(O)c2c(NCc3ccccc3)ncnc2n(O)c1=O [Example 78] :: Not met
O=c1cc(NC2CCCCC2)c2cncnc2n1O [Example 8] :: Not met

Ask: // inclusive: pIC50 at least 7? input: Cc1ncnc2c1c(NCc1cccc(O)c1)cc(=O)n2O [Example 114]
Reply: Met

Ask: Reported pIC50 at or above 7? Cc1ncnc2c1c(NCc1cccc(CN)c1)cc(=O)n2O [Example 132]
Reply: Not met

// provenance: patent US20150018546A1
